tested on: Klebsiella pneumoniae; experiment: Antibacterial activity against Klebsiella pneumoniae ATCC 700603 incubated for 18 to 24 hrs by broth microdilution method; format: functional; settings: time 18-24 hrs
Property measured: MIC (µM)
Hi! Could you send only the number? It should be in µM, unit omitted.

The examples below pair each entry with its known result.
H-GLWKRLKYLL-NH2
8
H-GLWKRLKTLL-NH2
8
H-GLLKRWKYLL-NH2
64

Now consider the entry below.
Look up MIC for this substance: `H-GLLKRWKTLL-NH2`
64

* * *

MIC overview
system: Acinetobacter baumannii; assay: Antibacterial activity against Acinetobacter baumannii ATCC 19606 incubated for 18 to 24 hrs by broth microdilution method; type: functional; conditions: time 18-24 hrs
Non-standard residues stand in square brackets, D forms with d. Residues, ends and D or L forms follow the SMILES beside them. Bip = N[C@@H](Cc1ccc(-c2ccccc2)cc1)C(=O)O; pY = N[C@@H](Cc1ccc(OP(=O)(O)O)cc1)C(=O)O; 2Nal = N[C@@H](Cc1ccc2ccccc2c1)C(=O)O
Give just the number in µM; leave the unit off.

CC(C)C[C@H](NC(=O)[C@H](CC(C)C)NC(=O)[C@H](Cc1ccc(OP(=O)(O)O)cc1)NC(=O)[C@H](CCCCN)NC(=O)[C@H](CC(C)C)NC(=O)[C@H](CCCNC(=N)N)NC(=O)[C@H](CCCCN)NC(=O)[C@H](Cc1ccc(-c2ccccc2)cc1)NC(=O)[C@H](CC(C)C)NC(=O)CN)C(N)=O (H-GL[Bip]KRLK[pY]LL-NH2)
4
CC(C)C[C@H](NC(=O)[C@H](CC(C)C)NC(=O)[C@H](Cc1ccc(OP(=O)(O)O)cc1)NC(=O)[C@H](CCCCN)NC(=O)[C@H](CC(C)C)NC(=O)[C@H](CCCNC(=N)N)NC(=O)[C@H](CCCCN)NC(=O)[C@H](Cc1ccc2ccccc2c1)NC(=O)[C@H](CC(C)C)NC(=O)CN)C(N)=O (H-GL[2Nal]KRLK[pY]LL-NH2)
8
C[C@@H](O)[C@H]1C(=O)N2C(C(=O)O)=C(S[C@@H]3CN[C@H](C(=O)N(C)C)C3)[C@H](C)[C@H]12
2
CC(C)C[C@H](NC(=O)[C@H](CC(C)C)NC(=O)[C@H](Cc1ccc(O)cc1)NC(=O)[C@H](CCCCN)NC(=O)[C@H](CC(C)C)NC(=O)[C@H](CCCNC(=N)N)NC(=O)[C@H](CCCCN)NC(=O)[C@H](Cc1ccc2ccccc2c1)NC(=O)[C@H](CC(C)C)NC(=O)CN)C(N)=O (H-GL[2Nal]KRLKYLL-NH2)
8
CC(C)C[C@H](NC(=O)[C@H](CC(C)C)NC(=O)[C@H](Cc1ccc(O)cc1)NC(=O)[C@H](CCCCN)NC(=O)[C@H](Cc1ccc(-c2ccccc2)cc1)NC(=O)[C@H](CCCNC(=N)N)NC(=O)[C@H](CCCCN)NC(=O)[C@H](CC(C)C)NC(=O)[C@H](CC(C)C)NC(=O)CN)C(N)=O (H-GLLKR[Bip]KYLL-NH2)
16

I'd like to know its MIC. The molecule in question is CNC(C)[C@@H]1CC[C@@H](N)[C@@H](O[C@H]2[C@H](O)[C@@H](O[C@H]3OC[C@](C)(O)[C@H](NC)[C@H]3O)[C@H](N)C[C@@H]2N)O1.CN[C@@H]1[C@@H](O)[C@@H](O[C@@H]2[C@@H](O)[C@H](O[C@H]3O[C@H](C(C)N)CC[C@H]3N)[C@@H](N)C[C@H]2N)OC[C@]1(C)O.CN[C@@H]1[C@@H](O)[C@@H](O[C@@H]2[C@@H](O)[C@H](O[C@H]3O[C@H](CN)CC[C@H]3N)[C@@H](N)C[C@H]2N)OC[C@]1(C)O (stereo partly specified)
8

* * *

assay: Toxicity in ip dosed BALB/c mouse measured after 14 days; type: organism-based; conditions: in vivo, time 14 day
Non-standard residues stand in square brackets, D forms with d. Residues, ends and D or L forms follow the SMILES beside them. Bip = N[C@@H](Cc1ccc(-c2ccccc2)cc1)C(=O)O; pY = N[C@@H](Cc1ccc(OP(=O)(O)O)cc1)C(=O)O
Property measured: LD50 at 336 h
The reply should read as a number followed by its unit.

CC(C)C[C@H](NC(=O)[C@H](CC(C)C)NC(=O)[C@H](Cc1ccc(O)cc1)NC(=O)[C@H](CCCCN)NC(=O)[C@H](CC(C)C)NC(=O)[C@H](CCCNC(=N)N)NC(=O)[C@H](CCCCN)NC(=O)[C@H](Cc1ccc(-c2ccccc2)cc1)NC(=O)[C@H](CC(C)C)NC(=O)CN)C(N)=O (H-GL[Bip]KRLKYLL-NH2)
66.7 mg/kg

Let us move to another entry and its LD50 at 336 h.
Form field: reported LD50 at 336 h of CC(C)C[C@H](NC(=O)[C@H](CC(C)C)NC(=O)[C@H](Cc1ccc(OP(=O)(O)O)cc1)NC(=O)[C@H](CCCCN)NC(=O)[C@H](CC(C)C)NC(=O)[C@H](CCCNC(=N)N)NC(=O)[C@H](CCCCN)NC(=O)[C@H](Cc1ccc(-c2ccccc2)cc1)NC(=O)[C@H](CC(C)C)NC(=O)CN)C(N)=O (H-GL[Bip]KRLK[pY]LL-NH2)
283 mg/kg

* * *

Listing of recorded MIC by entry.
tested on: Pseudomonas aeruginosa; assay: Antibacterial activity against Pseudomonas aeruginosa ATCC 27853 incubated for 18 to 24 hrs by broth microdilution method; assay type: functional; settings: time 18-24 hrs
Field: numeric (µM). Do not append units.

H-GLWKRLKTLL-NH2
4
H-GLLKRWKTLL-NH2
8
H-GLLKRWKYLL-NH2
8

Could you share which MIC value was measured for `H-GLWKRLKYLL-NH2` ?
8

* * *

Here the recorded MIC is given for each entry.
tested on: Staphylococcus aureus; assay: Antibacterial activity against Staphylococcus aureus 794 incubated for 18 to 24 hrs by broth microdilution method; type: functional; settings: time 18-24 hrs
Non-standard residues stand in square brackets, D forms with d. Residues, ends and D or L forms follow the SMILES beside them. Bip = N[C@@H](Cc1ccc(-c2ccccc2)cc1)C(=O)O; pY = N[C@@H](Cc1ccc(OP(=O)(O)O)cc1)C(=O)O; pT = C[C@@H](OP(=O)(O)O)[C@H](N)C(=O)O; 2Nal = N[C@@H](Cc1ccc2ccccc2c1)C(=O)O
Report as a plain number; the unit µM is understood.

Examples from the recorded data:
CC(C)C[C@H](NC(=O)[C@H](CC(C)C)NC(=O)[C@H](Cc1ccc(O)cc1)NC(=O)[C@H](CCCCN)NC(=O)[C@H](CC(C)C)NC(=O)[C@H](CCCNC(=N)N)NC(=O)[C@H](CCCCN)NC(=O)[C@H](Cc1ccc(-c2ccccc2)cc1)NC(=O)[C@H](CC(C)C)NC(=O)CN)C(N)=O (H-GL[Bip]KRLKYLL-NH2)
8
CN[C@H](CC(C)C)C(=O)N[C@H]1C(=O)N[C@@H](CC(N)=O)C(=O)N[C@H]2C(=O)N[C@H]3C(=O)N[C@H](C(=O)N[C@H](C(=O)O)c4cc(O)cc(O)c4-c4cc3ccc4O)[C@H](O)c3ccc(c(Cl)c3)Oc3cc2cc(c3O[C@@H]2O[C@H](CO)[C@@H](O)[C@H](O)[C@H]2O[C@H]2C[C@](C)(N)[C@H](O)[C@H](C)O2)Oc2ccc(cc2Cl)[C@H]1O [VANCOMYCIN]
128
CNC(C)[C@@H]1CC[C@@H](N)[C@@H](O[C@H]2[C@H](O)[C@@H](O[C@H]3OC[C@](C)(O)[C@H](NC)[C@H]3O)[C@H](N)C[C@@H]2N)O1.CN[C@@H]1[C@@H](O)[C@@H](O[C@@H]2[C@@H](O)[C@H](O[C@H]3O[C@H](C(C)N)CC[C@H]3N)[C@@H](N)C[C@H]2N)OC[C@]1(C)O.CN[C@@H]1[C@@H](O)[C@@H](O[C@@H]2[C@@H](O)[C@H](O[C@H]3O[C@H](CN)CC[C@H]3N)[C@@H](N)C[C@H]2N)OC[C@]1(C)O (some centres not stated)
64
CC(C)C[C@H](NC(=O)[C@H](CC(C)C)NC(=O)[C@@H](NC(=O)[C@H](CCCCN)NC(=O)[C@H](Cc1ccc(-c2ccccc2)cc1)NC(=O)[C@H](CCCNC(=N)N)NC(=O)[C@H](CCCCN)NC(=O)[C@H](CC(C)C)NC(=O)[C@H](CC(C)C)NC(=O)CN)[C@@H](C)O)C(N)=O (H-GLLKR[Bip]KTLL-NH2)
8
CC(C)C[C@H](NC(=O)[C@H](CC(C)C)NC(=O)[C@@H](NC(=O)[C@H](CCCCN)NC(=O)[C@H](Cc1ccc2ccccc2c1)NC(=O)[C@H](CCCNC(=N)N)NC(=O)[C@H](CCCCN)NC(=O)[C@H](CC(C)C)NC(=O)[C@H](CC(C)C)NC(=O)CN)[C@@H](C)OP(=O)(O)O)C(N)=O (H-GLLKR[2Nal]K[pT]LL-NH2)
128
CC(C)C[C@H](NC(=O)[C@H](CC(C)C)NC(=O)[C@@H](NC(=O)[C@H](CCCCN)NC(=O)[C@H](CC(C)C)NC(=O)[C@H](CCCNC(=N)N)NC(=O)[C@H](CCCCN)NC(=O)[C@H](Cc1ccc2ccccc2c1)NC(=O)[C@H](CC(C)C)NC(=O)CN)[C@@H](C)O)C(N)=O (H-GL[2Nal]KRLKTLL-NH2)
8
CC(C)C[C@H](NC(=O)[C@H](CC(C)C)NC(=O)[C@H](Cc1ccc(OP(=O)(O)O)cc1)NC(=O)[C@H](CCCCN)NC(=O)[C@H](Cc1ccc(-c2ccccc2)cc1)NC(=O)[C@H](CCCNC(=N)N)NC(=O)[C@H](CCCCN)NC(=O)[C@H](CC(C)C)NC(=O)[C@H](CC(C)C)NC(=O)CN)C(N)=O (H-GLLKR[Bip]K[pY]LL-NH2)
8
CC(C)C[C@H](NC(=O)[C@H](CC(C)C)NC(=O)[C@H](Cc1ccc(OP(=O)(O)O)cc1)NC(=O)[C@H](CCCCN)NC(=O)[C@H](CC(C)C)NC(=O)[C@H](CCCNC(=N)N)NC(=O)[C@H](CCCCN)NC(=O)[C@H](Cc1ccc(-c2ccccc2)cc1)NC(=O)[C@H](CC(C)C)NC(=O)CN)C(N)=O (H-GL[Bip]KRLK[pY]LL-NH2)
8
CC(C)C[C@H](NC(=O)[C@H](CC(C)C)NC(=O)[C@@H](NC(=O)[C@H](CCCCN)NC(=O)[C@H](Cc1ccc(-c2ccccc2)cc1)NC(=O)[C@H](CCCNC(=N)N)NC(=O)[C@H](CCCCN)NC(=O)[C@H](CC(C)C)NC(=O)[C@H](CC(C)C)NC(=O)CN)[C@@H](C)OP(=O)(O)O)C(N)=O (H-GLLKR[Bip]K[pT]LL-NH2)
32
CC(C)C[C@H](NC(=O)[C@H](CC(C)C)NC(=O)[C@H](Cc1ccc(O)cc1)NC(=O)[C@H](CCCCN)NC(=O)[C@H](Cc1ccc(-c2ccccc2)cc1)NC(=O)[C@H](CCCNC(=N)N)NC(=O)[C@H](CCCCN)NC(=O)[C@H](CC(C)C)NC(=O)[C@H](CC(C)C)NC(=O)CN)C(N)=O (H-GLLKR[Bip]KYLL-NH2)
8

# MIC lookup, item CC(C)C[C@H](NC(=O)[C@H](CC(C)C)NC(=O)[C@H](Cc1ccc(O)cc1)NC(=O)[C@H](CCCCN)NC(=O)[C@H](CC(C)C)NC(=O)[C@H](CCCNC(=N)N)NC(=O)[C@H](CCCCN)NC(=O)[C@H](Cc1ccc2ccccc2c1)NC(=O)[C@H](CC(C)C)NC(=O)CN)C(N)=O (H-GL[2Nal]KRLKYLL-NH2)
8

What value of MIC has been recorded for this entry: CC(C)C[C@H](NC(=O)[C@H](CC(C)C)NC(=O)[C@@H](NC(=O)[C@H](CCCCN)NC(=O)[C@H](CC(C)C)NC(=O)[C@H](CCCNC(=N)N)NC(=O)[C@H](CCCCN)NC(=O)[C@H](Cc1ccc(-c2ccccc2)cc1)NC(=O)[C@H](CC(C)C)NC(=O)CN)[C@@H](C)O)C(N)=O (H-GL[Bip]KRLKTLL-NH2)
8
